Measured values drawn from patent US20260317324A1 for this set.

# Subject of test: BRAF D594G (Homo sapiens, UniProt P15056, D594G)
# Construct: Horizon Discovery (HCT-116 BRAF−/− cells); host or cells: HCT-116 BRAF−/− cells, clone 63, lentiviral transduction
# Sequence (P15056 whole entry D594G): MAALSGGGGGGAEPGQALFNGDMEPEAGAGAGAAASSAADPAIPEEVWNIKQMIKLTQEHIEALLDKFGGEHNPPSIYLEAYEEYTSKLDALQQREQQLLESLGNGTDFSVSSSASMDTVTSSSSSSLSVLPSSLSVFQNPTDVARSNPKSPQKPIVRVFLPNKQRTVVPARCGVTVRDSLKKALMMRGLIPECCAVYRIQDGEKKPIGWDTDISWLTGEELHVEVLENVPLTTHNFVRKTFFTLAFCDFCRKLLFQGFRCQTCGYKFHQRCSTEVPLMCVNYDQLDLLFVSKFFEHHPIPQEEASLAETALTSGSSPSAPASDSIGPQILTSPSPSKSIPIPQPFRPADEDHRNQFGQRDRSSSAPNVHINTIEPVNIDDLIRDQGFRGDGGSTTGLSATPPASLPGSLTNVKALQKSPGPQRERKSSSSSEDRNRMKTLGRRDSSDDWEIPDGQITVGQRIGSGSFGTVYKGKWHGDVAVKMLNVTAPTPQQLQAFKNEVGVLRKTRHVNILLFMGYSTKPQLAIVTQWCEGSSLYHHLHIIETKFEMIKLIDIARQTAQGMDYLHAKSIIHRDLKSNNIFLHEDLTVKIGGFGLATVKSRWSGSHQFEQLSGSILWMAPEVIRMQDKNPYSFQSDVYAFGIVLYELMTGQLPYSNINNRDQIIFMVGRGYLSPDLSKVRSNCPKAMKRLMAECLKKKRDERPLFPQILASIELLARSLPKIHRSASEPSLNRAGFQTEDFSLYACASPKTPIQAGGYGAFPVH
# Test description: BRAF HiBiT degradation assay, C-terminal HiBiT-tagged BRAF D594G overexpressed in HCT-116 BRAF−/− cells (clone 63), Nano-Glo HiBiT Lytic assay
# Format: cell-based
# Applied conditions: BRAF D594G (Class 3), HCT-116 BRAF−/− cells; DC50 at 50% degradation
Observation type: DC50

See these solved cases before continuing.
INSERT INTO results (compound, subject_of_test, reported_measurement) VALUES
  ('O=C1CCC(c2ccc(N3CCC4(CC3)CC(CN3CCN(c5ccc(-n6cc(-c7cc(Cl)cc(NS(=O)(=O)N8CC[C@@H](F)C8)c7F)c(-c7ccncc7)n6)nc5)CC3)C4)cc2)C(=O)N1 (mixture of isomers)', 'BRAF D594G (Homo sapiens, UniProt P15056, D594G)', '> 500 nM'),
  ('O=C1CCC(c2ccc(N3CCC(CN4CCN(c5ccc(-n6cc(-c7cc(Cl)cc(NS(=O)(=O)C8CCCC8)c7F)c(-c7ccncc7)n6)cc5)CC4)CC3)nc2)C(=O)N1 (racemic)', 'BRAF D594G (Homo sapiens, UniProt P15056, D594G)', '< 10 nM'),
  ('CCC(C)S(=O)(=O)Nc1cc(Cl)cc(-c2cn(-c3ccc(N4CCN(CC5CCN(c6ccc([C@H]7CCC(=O)NC7=O)cn6)CC5)CC4)cc3)nc2-c2ccncc2)c1F (mixture of isomers)', 'BRAF D594G (Homo sapiens, UniProt P15056, D594G)', '< 10 nM'),
  ('C[C@@H]1CN(c2ccc(-n3cc(-c4cc(Cl)cc(NS(=O)(=O)N5CC[C@@H](F)C5)c4F)c(-c4ccncc4)n3)cc2)CCN1CC1CCN(c2ccc(C3CCC(=O)NC3=O)cn2)CC1 (mixture of isomers)', 'BRAF D594G (Homo sapiens, UniProt P15056, D594G)', '< 10 nM'),
  ('O=C1CCC(c2ccc(N3CCC(CN4CCN(c5ccc(-n6cc(-c7cc(Cl)cc(NS(=O)(=O)N8CC(F)C8)c7F)c(-c7ccncc7)n6)cc5)CC4)CC3)nc2)C(=O)N1 (racemic)', 'BRAF D594G (Homo sapiens, UniProt P15056, D594G)', '< 10 nM'),
  ('O=C1CC[C@H](c2ccc(N3CCC(CN4CCN(c5ccc(-n6cc(-c7cc(F)cc(NS(=O)(=O)N8CC[C@@H](F)C8)c7F)c(-c7ccncc7)n6)nc5)CC4)CC3)nc2)C(=O)N1', 'BRAF D594G (Homo sapiens, UniProt P15056, D594G)', '< 10 nM'),
  ('O=C1CCN(c2ccc(N3CCC(CN4CCN(c5ccc(-n6cc(-c7cc(Cl)cc(NS(=O)(=O)N8CCCC8)c7F)c(-c7ccncc7)n6)cc5)CC4)CC3)nc2)C(=O)N1', 'BRAF D594G (Homo sapiens, UniProt P15056, D594G)', '< 10 nM'),
  ('C[C@@H]1CN(c2ccc(-n3cc(-c4cc(Cl)cc(NS(=O)(=O)N5CCCC5)c4F)c(-c4ccncc4)n3)nc2)CCN1CC1CCN(c2ccc([C@H]3CCC(=O)NC3=O)cc2)CC1', 'BRAF D594G (Homo sapiens, UniProt P15056, D594G)', '< 10 nM');

Requested field: DC50. Item: O=C1CCN(c2ccc(N3CCC(CN4CCN(c5ccc(-n6cc(-c7cc(Cl)cc(NS(=O)(=O)N8CC[C@@H](F)C8)c7F)c(-c7ccncc7)n6)c(F)c5)CC4)CC3)nc2)C(=O)N1
< 10 nM

Entry to check: O=C1CC[C@H](c2ccc(N3CCC(CN4CCN(c5ccc(-n6cc(-c7cc(Cl)cc(NS(=O)(=O)N8CCCC8)c7F)c(-c7ccncc7)n6)cc5)CC4)CC3)cc2)C(=O)N1
< 10 nM

Next record, please: O=C1CCC(c2cc(F)c(N3CCC(CN4CCN(c5ccc(-n6cc(-c7cc(Cl)cc(NS(=O)(=O)N8CCCC8)c7F)c(-c7ccncc7)n6)cc5)CC4)CC3)cc2F)C(=O)N1 (racemic)
10 to 50 nM

Try this compound next: C[C@@H]1CN(c2ccc(-n3cc(-c4cc(Cl)cc(NS(=O)(=O)N5CC[C@@H](F)C5)c4F)c(-c4ccncc4)n3)nc2)CCN1CC1CCN(c2ccc([C@H]3CCC(=O)NC3=O)cc2)CC1
< 10 nM

Proceed to O=C1CC[C@H](c2ccc(N3CCC(CN4CCN(c5ccc(-n6cc(-c7cc(Cl)cc(NS(=O)(=O)N8CCCC8)c7F)c(-c7ccncc7)n6)nc5)CC4)CC3)nc2)C(=O)N1
< 10 nM
